target: SSTR3 (UniProt P32745); test: cAMP functional agonist assay, CHO cells expressing SSTR3; conditions: CHO cells stably expressing SSTR3, cAMP
Sequence (P32745 whole entry): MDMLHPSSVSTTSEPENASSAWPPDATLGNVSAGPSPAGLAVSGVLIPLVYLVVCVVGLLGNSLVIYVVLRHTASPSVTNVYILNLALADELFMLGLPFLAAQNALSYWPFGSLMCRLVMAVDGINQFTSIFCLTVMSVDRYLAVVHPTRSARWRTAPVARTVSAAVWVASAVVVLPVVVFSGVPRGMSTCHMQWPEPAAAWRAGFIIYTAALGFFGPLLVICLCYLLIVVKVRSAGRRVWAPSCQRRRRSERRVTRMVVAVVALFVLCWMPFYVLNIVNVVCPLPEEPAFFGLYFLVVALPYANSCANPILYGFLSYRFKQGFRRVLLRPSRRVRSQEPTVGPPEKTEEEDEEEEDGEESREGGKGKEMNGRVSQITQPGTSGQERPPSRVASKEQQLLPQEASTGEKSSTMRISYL
metric.name: EC50

Would you please look over these solved cases?
Cc1cc(C)cc(-c2cnc3ncn(-c4cc(O)cc(F)c4)c(=O)c3c2CN(C)C[C@@H]2CCCN2)c1 = < 100 nM
Cc1cc(Cl)cc(-c2cnc3ncn(-c4cccc(C(N)=O)c4)c(=O)c3c2CN(C)C[C@@H]2CCCN2)c1 = 100 to 10000 nM
CC[C@H](N)CN(C)Cc1c(-c2cc(C)cc(C)c2)cnc2ncn(-c3cc(O)cc(F)c3)c(=O)c12 = < 100 nM
Cc1cc(C)cc(-c2cnc3ncn(-c4cccc(O)c4)c(=O)c3c2CN2CCC(N)C2)c1 (stereo not shown) = > 10000 nM
Cc1cc(Cl)cc(-c2cnc3ncn(-c4cc(O)cc(Cl)c4)c(=O)c3c2CN(C)C[C@@H]2CCCN2)c1 = < 100 nM
Cc1cc(Cl)cc(-c2cnc3ncn(-c4cc(O)cc(C#N)c4)c(=O)c3c2CN(C)C[C@@H]2CCCN2)c1 = < 100 nM

Consider now this further compound.
Dear colleague, please send me the reported EC50 for Cc1cc(C)cc(-c2cnc3ncn(-c4cccc(O)c4)c(=O)c3c2CN(C)C[C@H]2CCCN2)c1 when you can.
< 100 nM

From: patent US9957267B2
